Values compiled from PubChem BioAssay AID1159580.

Listing: normalized growth of selected molecules
- test-protocol: chemical genetic growth profiling, strain panel (AID 1159580);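 also: tested at 20 µM; growth read once vehicle control cultures reached saturation at 30 °C; 1 = growth at the plate median or of vehicle wells; lower values mean less growth of the strain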
- assay-context: S. cerevisiae deletion strains, growth OD, locus YCR088W, strain abp1, stronger effect = lower value
Hit rate of the full screen: of about 5,500 compounds, about 2,000 (36%) were called active. Roughly 18% stayed inconclusive and do not appear here. This is one part of the list.
assay-metric: normalized growth

INSERT INTO results (molecule, assay_metric, experimental_result) VALUES
  ('COc1cc([C@@H]2c3cc4c(cc3[C@@H](O)C3COC(=O)C32)OCO4)cc(OC)c1O (some centres not stated)', 'normalized growth', 0.988),
  ('N[C@@H](Cc1ccc(N(CCCl)CCCl)cc1)C(=O)O', 'normalized growth', 0.986),
  ('Cc1ccccc1C(OCCN(C)C)c1ccccc1 (configuration not stated)', 'normalized growth', 1),
  ('CN(C)CCOC(c1ccc(Cl)cc1)c1ccccn1 (configuration not stated)', 'normalized growth', 1.01),
  ('O=C(O)CCCc1ccc(N(CCCl)CCCl)cc1', 'normalized growth', 0.984),
  ('O=c1cccc2ccc(O)c(O)c2c1O', 'normalized growth', 0.961),
  ('COC(=O)c1cc(=O)c(O)c2c(O)c(O)ccc2c1', 'normalized growth', 0.997),
  ('COc1ccc2c(c1)OC1(O)COc3cc(OC)c(OC)cc3C1=C2 (configuration not stated)', 'normalized growth', 0.978),
  ('CCN1CCCC(OC(=O)C(c2ccccc2)c2ccccc2)C1 (configuration not stated)', 'normalized growth', 0.978),
  ('O=C1NCC2(CCN(CCc3ccccc3)CC2)O1', 'normalized growth', 1.01),
  ('C=CC[C@]1(O)CCC2C3CCC4=CC(=O)CCC4=C3C=C[C@@]21C (some centres not stated)', 'normalized growth', 0.987),
  ('CC#CC1(O)CCC2C3CCC4=CC(=O)CCC4=C3C(c3ccc(N(C)C)cc3)CC21C (configuration not stated)', 'normalized growth', 0.997);

###

- test-protocol: chemical genetic growth profiling, strain panel (AID 1159580);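 also: tested at 20 µM; growth read once vehicle control cultures reached saturation at 30 °C; 1 = growth at the plate median or of vehicle wells; lower values mean less growth of the strain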
- assay-context: S. cerevisiae deletion strains, growth OD, locus YJL092W, strain hpr5
Out of some 5,500 compounds screened, about 2,000 (36%) were called active. About 18% were inconclusive and are not listed. Rule as the data show it: active = normalized growth mostly below about 0.91 (no sharp cut-off); inconclusive = no clear call, values can overlap the other calls; inactive = mostly above about 0.92. The list shows a part of the results.
Labels: active, inactive

INSERT INTO results (compound, label) VALUES
  ('Cn1c(=O)c2c(ncn2CC(O)CO)n(C)c1=O (stereo unspecified)', 'inactive'),
  ('O=C(O)/C=C/c1ccc(O)c(O)c1', 'inactive'),
  ('COc1ccc2c(c1)OC/C(=C\c1ccc(OC)c(O)c1)C2=O', 'inactive'),
  ('O=C(/C=C/c1ccc(O)c(O)c1)OC(Cc1ccc(O)c(O)c1)C(=O)O (stereo unspecified)', 'inactive'),
  ('Cc1ccc(S(=O)(=O)NC(=O)NN2CCCCCC2)cc1', 'inactive'),
  ('N=c1ccn2c(n1)OC1C(O)C(CO)OC12 (stereo unspecified)', 'inactive'),
  ('CC1CCc2cc(F)cc3c(=O)c(C(=O)O)cn1c23 (stereo unspecified)', 'inactive'),
  ('Cc1ncc(CNC(=O)N(CCCl)N=O)c(N)n1', 'inactive'),
  ('O=C(/C=C/c1ccc(O)c(O)c1)OCCc1ccccc1', 'active'),
  ('Oc1cc(O)c2c(c1)O[C@H](c1ccc(O)c(O)c1)[C@H](O)C2', 'inactive'),
  ('CCN1CCCC(OC(=O)C(c2ccccc2)c2ccccc2)C1 (stereo unspecified)', 'inactive'),
  ('N[C@@H](Cc1ccc(N(CCCl)CCCl)cc1)C(=O)O', 'inactive'),
  ('C#CCN(C)Cc1ccccc1', 'inactive'),
  ('CC(=O)S[C@@H]1CC2=CC(=O)CC[C@]2(C)[C@H]2CC[C@@]3(C)[C@@H](CC[C@@]34CCC(=O)O4)C12 (stereo partly specified)', 'inactive'),
  ('OCC(O)CN1CCN(c2ccccc2)CC1 (stereo unspecified)', 'inactive'),
  ('CC1COc2c(N3CCN(C)CC3)c(F)cc3c(=O)c(C(=O)O)cn1c23 (stereo unspecified)', 'inactive'),
  ('Oc1cc(O)c2c(c1)O[C@H](c1cc(O)c(O)c(O)c1)[C@H](O)C2', 'inactive'),
  ('CC(=O)O[C@H]1C[C@@H](OC(C)=O)C(C)(C)C2CC(=O)[C@]3(C)C(CC[C@@]4(C)[C@H](C(=O)O)OC(=O)C5OC543)[C@]21C (stereo partly specified)', 'inactive'),
  ('C=C1C2CC[C@@]3(C)[C@H](c4ccoc4)OC(=O)C[C@]13O[C@H]1CC(=O)C(C)(C)[C@H](C(OC(C)=O)C(=O)OC)[C@@]21C (stereo partly specified)', 'inactive'),
  ('COC(=O)/C=C/C(C)=C/C=C/C(C)=C/C=C/C=C(C)/C=C/C=C(C)/C=C/C(=O)O', 'inactive'),
  ('CCC[C@H](N[C@@H](C)C(=O)N1[C@H](C(=O)O)C[C@@H]2CCCC[C@@H]21)C(=O)OCC', 'inactive');
